Molecular target: UniProtKB P25021
Sequence (P25021 whole entry): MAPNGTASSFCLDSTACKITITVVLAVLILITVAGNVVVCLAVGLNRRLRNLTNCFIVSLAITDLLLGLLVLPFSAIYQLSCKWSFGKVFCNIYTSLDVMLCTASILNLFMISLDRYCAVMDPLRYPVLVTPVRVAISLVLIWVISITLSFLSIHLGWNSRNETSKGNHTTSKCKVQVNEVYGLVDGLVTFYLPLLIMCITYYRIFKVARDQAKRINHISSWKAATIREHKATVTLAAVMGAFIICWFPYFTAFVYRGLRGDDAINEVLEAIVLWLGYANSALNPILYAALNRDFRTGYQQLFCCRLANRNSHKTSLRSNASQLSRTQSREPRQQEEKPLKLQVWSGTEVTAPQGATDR
Format: functional, cell-based
Where a SMILES comes first, the peptide text is derived from it.
Provide the recorded AC50 for the entries that follow.

Request - read-out AC50 | tested on UniProtKB P25021 | molecule Nc1nnc(-c2cccc(Cl)c2Cl)c(N)n1
> 10 µM

Request - read-out AC50 | tested on UniProtKB P25021 | molecule C#CCN(C)Cc1ccccc1
> 30 µM

Request - read-out AC50 | tested on UniProtKB P25021 | molecule CC1=C(CC(=O)O)c2cc(F)ccc2/C1=C\c1ccc([S+](C)[O-])cc1 (stereo not drawn)
> 10 µM

Request - read-out AC50 | tested on UniProtKB P25021 | molecule CCC1(CC)C(=O)NC(=O)N(C)C1=O
> 10 µM

Request - read-out AC50 | tested on UniProtKB P25021 | molecule C[C@H](N)C(=O)N[C@@H](CCC(N)=O)C(=O)O [ALANYL GLUTAMINE] (H-Ala-Gln-OH)
> 30 µM

Request - read-out AC50 | tested on UniProtKB P25021 | molecule COc1nc(C)nc(Cl)c1N=C1NCCN1
16 µM

Request - read-out AC50 | tested on UniProtKB P25021 | molecule CC1(C)O[C@@H]2C[C@H]3[C@@H]4CCC5=CC(=O)C=C[C@]5(C)[C@@]4(F)[C@@H](O)C[C@]3(C)[C@]2(C(=O)CO)O1 [TRIAMCINOLONE ACETONIDE]
> 30 µM

Request - read-out AC50 | tested on UniProtKB P25021 | molecule CN(C)CCC(O)(c1ccccc1)c1ccccc1Cl (stereo not drawn)
> 10 µM

Request - read-out AC50 | tested on UniProtKB P25021 | molecule Cc1cnc(Nc2ccc(OCCN3CCCC3)cc2)nc1Nc1cccc(S(=O)(=O)NC(C)(C)C)c1
> 10 µM

Request - read-out AC50 | tested on UniProtKB P25021 | molecule COc1ccc(C(Cl)=C(c2ccc(OC)cc2)c2ccc(OC)cc2)cc1
> 30 µM

Request - read-out AC50 | tested on UniProtKB P25021 | molecule CN1C2CCCC1CC(NC(=O)c1nn(C)c3ccccc13)C2 (stereo not drawn)
> 10 µM

Request - read-out AC50 | tested on UniProtKB P25021 | molecule C[C@]12C=CC(=O)C=C1C(Cl)=C[C@@H]1[C@@H]2[C@@H](O)C[C@@]2(C)[C@H]1CC[C@]2(O)C(=O)CO
> 30 µM

Request - read-out AC50 | tested on UniProtKB P25021 | molecule NS(=O)(=O)c1ccc(N2CCCCS2(=O)=O)cc1
> 30 µM

Request - read-out AC50 | tested on UniProtKB P25021 | molecule C=C(c1ccccc1OCc1cccc(Cl)c1)n1ccnc1
> 10 µM

Request - read-out AC50 | tested on UniProtKB P25021 | molecule OCCOCCN1CCN(C(c2ccccc2)c2ccc(Cl)cc2)CC1 (stereo not drawn) [HYDROXYZINE]
> 10 µM

Request - read-out AC50 | tested on UniProtKB P25021 | molecule N[C@@H](Cc1cc(I)c(Oc2cc(I)c(O)c(I)c2)c(I)c1)C(=O)O
> 30 µM

Request - read-out AC50 | tested on UniProtKB P25021 | molecule COc1ccc(-n2nc(C(N)=O)c3c2C(=O)N(c2ccc(N4CCCCC4=O)cc2)CC3)cc1
> 30 µM

Request - read-out AC50 | tested on UniProtKB P25021 | molecule CN1C(=O)CN=C(c2ccccc2F)c2cc([N+](=O)[O-])ccc21
> 10 µM
